system: male NMRI mice; assay: Analgesic test using the phenylquinone-induced writhing test on mice; format: in vivo; settings: 10 mg/kg intravenous
measurement-label: % Inhibition of the writhing reaction (Dosage in mg/kg intravenous)

Some solved entries appear below for comparison.
# compound, result
measured = [
    ("CCC(CC)C(=O)N1CCC2(CC1)N[C@@H](Cc1ccccc1)C(=O)N2Cc1ccc(F)cc1.Cl (racemic)", "36 (10) %"),
    ("Cl.O=C(c1ccc(C(F)(F)F)c(F)c1)N1CCC2(CC1)N[C@@H](Cc1ccccc1)C(=O)N2Cc1ccccc1", "30 (10) %"),
    ("CCC(CC)C(=O)N1CCC2(CC1)N[C@@H](Cc1ccccc1)C(=O)N2Cc1ccccc1.Cl", "42 (10) %"),
    ("CCC(CC)C(=O)N1CCC2(CC1)NC(=O)[C@H](Cc1ccccc1)N2.Cl", "51 (10) %"),
]

Please state recorded % Inhibition of the writhing reaction (Dosage in mg/kg intravenous) (tested on male NMRI mice) of Cl.O=C(COc1ccc(Cl)cc1)N1CCC2(CC1)N[C@@H](Cc1ccccc1)C(=O)N2Cc1ccccc1
45 (10) %

---

test system: batrachotoxin (BTX) binding site of the sodium channel; test: Affinity to the batrachotoxin (BTX) binding site of the sodium channel; conditions: Table III; rat cerebrocortex synaptosomes; test concentration not given
// BTX inhibition lookup, one value per entry

# compound, target-under-test, measurement-label, result
rows = [
    ("Cc1onc(-c2c(F)cccc2Cl)c1C(=O)N1CCC2(CC1)NC(C(C)C)C(=O)N2CCOc1ccccc1 (centres unmarked)", "batrachotoxin (BTX) binding site of the sodium channel", "BTX inhibition", 37),
    ("CSCCC1NC2(CCN(C(=O)c3cccc(OC(F)(F)F)c3)CC2)N(Cc2cccc(C#N)c2)C1=O (centres unmarked)", "batrachotoxin (BTX) binding site of the sodium channel", "BTX inhibition", 44),
    ("CSCCC1NC2(CCN(C(=O)c3cccc(C)c3C)CC2)N(C)C1=O (centres unmarked)", "batrachotoxin (BTX) binding site of the sodium channel", "BTX inhibition", 47),
    ("O=C(CCCOc1ccccc1)N1CCC2(CC1)NC(Cc1ccccc1)C(=O)N2Cc1ccccc1 (centres unmarked)", "batrachotoxin (BTX) binding site of the sodium channel", "BTX inhibition", 67),
]

For the compound shown here, CN1C(=O)C(Cc2ccccc2)NC12CCN(C(=O)C1COc3ccc(Cl)cc3C1)CC2 (centres unmarked) , give the reported BTX inhibition.
42

What about this compound? CSCCC1NC2(CCN(C(=O)CCC3CCCC3)CC2)N(Cc2ccccc2)C1=O (centres unmarked)
36

Record: O=C(c1ccc(Br)cc1)N1CCC2(CC1)NC(Cc1ccccc1)C(=O)N2Cc1ccccc1 (centres unmarked)
66

What do you get for COC(=O)c1ccc(CN2C(=O)CNC23CCN(C(=O)c2cc(C(C)(C)C)oc2C)CC3)cc1 ?
40

---

target: 5-HT transporter (Rattus norvegicus, UniProt P31652); construct: synaptosomes of rat brain areas are freshly isolated; from tissue; host or cells: rat brain synaptosomes (P2 fraction) from marrow and pons; assay: Inhibition of 5-HT uptake in rat brain synaptosomes; assay type: biochemical; conditions: read-out: Uptake 5-HT, % inhibition; Table III; rat, 1 μM
Sequence (P31652 whole entry): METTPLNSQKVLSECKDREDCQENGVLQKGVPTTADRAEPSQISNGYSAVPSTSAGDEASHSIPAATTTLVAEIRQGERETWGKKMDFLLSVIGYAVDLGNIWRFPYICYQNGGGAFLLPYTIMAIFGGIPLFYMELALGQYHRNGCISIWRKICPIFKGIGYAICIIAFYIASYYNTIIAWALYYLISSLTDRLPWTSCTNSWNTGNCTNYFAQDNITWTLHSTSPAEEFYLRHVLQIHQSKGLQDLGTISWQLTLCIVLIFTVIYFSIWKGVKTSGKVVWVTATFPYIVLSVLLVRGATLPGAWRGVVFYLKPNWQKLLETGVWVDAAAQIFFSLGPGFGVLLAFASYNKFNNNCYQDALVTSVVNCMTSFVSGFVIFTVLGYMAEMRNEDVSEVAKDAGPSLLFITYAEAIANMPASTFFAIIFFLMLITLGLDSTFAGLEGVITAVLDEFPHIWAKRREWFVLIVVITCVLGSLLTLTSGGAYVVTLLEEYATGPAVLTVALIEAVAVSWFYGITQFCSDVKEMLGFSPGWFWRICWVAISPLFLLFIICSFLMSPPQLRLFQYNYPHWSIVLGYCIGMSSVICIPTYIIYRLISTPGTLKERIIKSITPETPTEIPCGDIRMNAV
# maps each entry to its inhibition at 1 µM
Remember to put the unit after the number in your answer.

# compound, result
data = [
    ("C=CCN1C(=O)C(CCSC)NC12CCN(C(=O)C1CC1)CC2 (stereo not shown)", "56%"),
    ("C=CCCC(=O)N1CCC2(CC1)NCC(=O)N2Cc1ccccc1F", "41%"),
    ("Cc1onc(-c2c(F)cccc2Cl)c1C(=O)N1CCC2(CC1)NC(=O)C(C(C)C)N2 (stereo not shown)", "33%"),
    ("COC(=O)c1ccc(CN2C(=O)CNC23CCN(C(=O)c2cccnc2SC)CC3)cc1", "34%"),
    ("COc1ccc(OC)c(CC(=O)N2CCC3(CC2)NC(CCSC)C(=O)N3Cc2ccccc2F)c1 (stereo not shown)", "50%"),
    ("O=C(c1ccc(-c2ccccc2)cc1)N1CCC2(CC1)NCC(=O)N2Cc1ccccc1F", "60%"),
    ("C#CCN1C(=O)C(CCSC)NC12CCN(C(=O)C1CCC1)CC2 (stereo not shown)", "56%"),
    ("CCOC(=O)CN1C(=O)C(Cc2ccccc2)NC12CCN(C(=O)c1ccc(NC(C)=O)cc1)CC2 (stereo not shown)", "94%"),
    ("COC(=O)c1ccc(CN2C(=O)CNC23CCN(C(=O)c2cccnc2Cl)CC3)cc1", "73%"),
    ("Cc1cccc(C(=O)N2CCC3(CC2)NCC(=O)N3CCOc2ccccc2)c1", "50%"),
]

Please give the measured inhibition at 1 µM for this compound: CCCCN1C(=O)C(Cc2ccccc2)NC12CCN(C(=O)c1ccco1)CC2 (stereo not shown)
63%

And for C=CCN1C(=O)C(CCSC)NC12CCN(C(=O)c1cc(C(C)(C)C)nn1C)CC2 (stereo not shown) ?
45%

What would you report for COC(=O)c1ccc(CN2C(=O)CNC23CCN(C(=O)C2CCCCC2)CC3)cc1 ?
47%

Try CCCCN1C(=O)C(Cc2ccccc2)NC12CCN(C(=O)CCC1CCCC1)CC2 (stereo not shown) next.
70%

Moving on to CCCCN1C(=O)C(Cc2ccccc2)NC12CCN(C(=O)COC)CC2 (stereo not shown)
43%

Please answer likewise for COc1ccc(C(=O)N2CCC3(CC2)NC(CCSC)C(=O)N3C)c(OC)c1 (stereo not shown)
46%

Field entry: C#CCN1C(=O)C(Cc2ccccc2)NC12CCN(C(=O)c1ccco1)CC2 (stereo not shown)
32%

Cool, now O=C(c1sccc1Cl)N1CCC2(CC1)NC(Cc1ccccc1)C(=O)N2Cc1ccccc1 (stereo not shown)
76%

For Cc1nc(C(F)(F)F)ccc1C(=O)N1CCC2(CC1)NC(C(C)C)C(=O)N2Cc1ccccc1 (stereo not shown) then?
49%

Another compound to check: C#CCN1C(=O)C(Cc2ccccc2)NC12CCN(C(=O)c1cc(C)on1)CC2 (stereo not shown)
50%

Now consider Cc1cc(C(=O)N2CCC3(CC2)NCC(=O)N3Cc2ccccc2F)n(C(C)(C)C)n1 and answer again.
82%

Continue with Cn1nc(C(C)(C)C)cc1C(=O)N1CCC2(CC1)NCC(=O)N2Cc1ccccc1F
60%

Same lookup for COCC(=O)N1CCC2(CC1)NC(CCSC)C(=O)N2Cc1cccc(C#N)c1 (stereo not shown) , please.
43%

Entry N#Cc1cccc(CN2C(=O)CNC23CCN(C(=O)c2cc(C(F)(F)F)cc(C(F)(F)F)c2)CC3)c1 please
51%

Also CCCCCC(=O)N1CCC2(CC1)NC(C(C)C)C(=O)N2CCCC (stereo not shown) ?
47%

And what about the compound CCCCN1C(=O)C(CCSC)NC12CCN(C(=O)c1ccc(OC)cc1)CC2 (stereo not shown) ?
51%

Try this compound next: CC(C)C1NC2(CCN(C(=O)c3cccc(SC(F)F)c3)CC2)N(Cc2ccccc2)C1=O (stereo not shown)
53%

// query: CSCCC1NC2(CCN(C(=O)c3c(F)ccc(C)c3F)CC2)N(C)C1=O (stereo not shown)
31%

Field entry: O=C(C=Cc1ccccc1)N1CCC2(CC1)NC(Cc1ccccc1)C(=O)N2Cc1ccccc1 (stereo not shown)
49%

Try this compound too: COC(=O)c1ccc(CN2C(=O)C(C(C)C)NC23CCN(C(=O)c2ccc(C(F)(F)F)c(F)c2)CC3)cc1 (stereo not shown)
42%

---

Parameter BTX inhibition: see the listing below.
tested on: batrachotoxin (BTX) binding site of the sodium channel; assay: Affinity to the batrachotoxin (BTX) binding site of the sodium channel; conditions: Table III; rat cerebrocortex synaptosomes; test concentration not given
Lab note: record just the number, no unit beside it.

# compound, BTX inhibition
rows = [
    ("C=CCN1C(=O)C(C(C)C)NC12CCN(C(=O)Cc1cccc(OC)c1)CC2 (centres unmarked)", 36),
    ("CCOC(=O)CN1C(=O)C(Cc2ccccc2)NC12CCN(C(=O)COCc1ccccc1)CC2 (centres unmarked)", 43),
    ("O=C(c1ccnc(Cl)c1)N1CCC2(CC1)NCC(=O)N2Cc1ccccc1F", 33),
    ("CSCCC1NC2(CCN(C(=O)c3c(-c4ccccc4Cl)noc3C)CC2)N(Cc2cc(C)cc(C)c2)C1=O (centres unmarked)", 51),
]

Which BTX inhibition value belongs to CN(C)c1cccc(C(=O)N2CCC3(CC2)NC(Cc2ccccc2)C(=O)N3Cc2ccccc2)c1 (centres unmarked) ?
66

Entry to check: CCOC(=O)CN1C(=O)C(CCSC)NC12CCN(C(=O)c1ccc(C(F)(F)F)cc1)CC2 (centres unmarked)
36

Can you check Cc1cc(C)cc(CN2C(=O)C(CC(C)C)NC23CCN(C(=O)CN(C)C)CC3)c1 (centres unmarked) next?
82

# iterate: CC(C)C1NC2(CCN(C(=O)C=Cc3ccccc3Cl)CC2)N(CCOc2ccccc2)C1=O (centres unmarked)
55
